Biological target: Tyrosine-protein kinase receptor UFO (Homo sapiens)
Sequence (P30530 whole entry): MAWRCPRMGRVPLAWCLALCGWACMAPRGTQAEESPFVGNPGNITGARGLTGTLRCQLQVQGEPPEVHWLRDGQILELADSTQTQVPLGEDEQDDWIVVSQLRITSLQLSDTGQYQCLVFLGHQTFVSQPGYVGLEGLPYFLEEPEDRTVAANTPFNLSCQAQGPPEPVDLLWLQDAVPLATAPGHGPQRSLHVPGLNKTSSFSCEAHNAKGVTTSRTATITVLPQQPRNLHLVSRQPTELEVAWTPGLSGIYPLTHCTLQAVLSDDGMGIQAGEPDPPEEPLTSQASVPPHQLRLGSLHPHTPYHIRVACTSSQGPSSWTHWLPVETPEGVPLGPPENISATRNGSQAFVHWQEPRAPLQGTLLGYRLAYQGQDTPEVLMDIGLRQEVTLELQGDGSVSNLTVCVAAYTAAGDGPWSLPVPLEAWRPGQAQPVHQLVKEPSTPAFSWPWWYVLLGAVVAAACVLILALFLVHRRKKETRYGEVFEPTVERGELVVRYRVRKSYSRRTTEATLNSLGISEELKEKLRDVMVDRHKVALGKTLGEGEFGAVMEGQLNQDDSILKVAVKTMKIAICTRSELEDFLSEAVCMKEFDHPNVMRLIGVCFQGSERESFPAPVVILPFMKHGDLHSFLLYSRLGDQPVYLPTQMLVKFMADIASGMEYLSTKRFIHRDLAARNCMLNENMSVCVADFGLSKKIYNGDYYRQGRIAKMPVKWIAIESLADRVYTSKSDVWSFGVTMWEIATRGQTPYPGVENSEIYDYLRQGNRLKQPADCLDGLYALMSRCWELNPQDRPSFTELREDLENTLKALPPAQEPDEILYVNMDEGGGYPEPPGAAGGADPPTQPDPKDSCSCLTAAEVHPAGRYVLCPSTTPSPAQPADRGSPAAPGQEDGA
Experiment: Inhibition of recombinant AXL (unknown origin) using poly (Glu,Tyr) 4:1 as substrate incubated for 60 mins in presence of ATP by ELISA
Property measured: log10 IC50 (log10 of the value in µM)

{"Smiles repr": "COc1cc2nccc(Oc3ccc(Nc4nn(C)cc4C(=O)NC4CCCC4)cc3F)c2cc1OC", "log10 IC50": -1.56}
{"Smiles repr": "COc1cc2nccc(Oc3ccc(Nc4nn(C)cc4C(=O)Nc4cccc(F)c4)cc3F)c2cc1OC", "log10 IC50": -0.58}
{"Smiles repr": "COc1cc2nccc(Oc3ccc(Nc4nn(C)cc4C(=O)NC4CCCCC4)cc3)c2cc1OC", "log10 IC50": -1.46}
{"Smiles repr": "COc1ccc(NC(=O)c2cn(C)nc2Nc2ccc(Oc3ccnc4cc(OC)c(OC)cc34)c(F)c2)cc1", "log10 IC50": -1.06}
{"Smiles repr": "COc1cc2nccc(Oc3ccc(Nc4nn(C)cc4C(=O)Nc4ccc(C)cc4)cc3F)c2cc1OC", "log10 IC50": -1.64}
{"Smiles repr": "COCCCOc1cc2nccc(Oc3ccc(Nc4nn(C)cc4C(=O)NC4CCCCC4)cc3F)c2cc1OC", "log10 IC50": -2.07}
{"Smiles repr": "COc1cc2c(Oc3ccc(Nc4nn(C)cc4C(=O)NC4CCCCC4)cc3F)ccnc2cc1OCCCN1CCCCC1", "log10 IC50": -2.25}
{"Smiles repr": "COCCOc1cc2nccc(Oc3ccc(Nc4nn(C)cc4C(=O)NC4CCCCC4)cc3F)c2cc1OC", "log10 IC50": -2.11}
